Every entry's value here was drawn from patent US20240294541A1.

tested on: MIA PaCa-2 (human pancreatic cancer); assay: cells; assay type: cell-based; conditions: Table 4; MIA PaCa-2 human pancreatic cancer cells; read-out: IC50 (nM) MIA PaCa-2
Label criterion met when IC50 is strictly below 300 nM; at or above that, label criterion not met.

Please state whether IC50 is below 300 nM for `CC[C@@H](C(=O)[C@@H](C)[C@@H](O)[C@H](C)[C@@H]1O[C@@H]([C@@H](CC)C(=O)O)CC[C@@H]1C)[C@H]1O[C@]2(C=C[C@@H](NC(=O)C(=O)NC)[C@]3(CC[C@@](C)([C@H]4CC[C@](O)(CC)[C@H](C)O4)O3)O2)[C@H](C)C[C@@H]1C` criterion not met

Please state whether IC50 is below 300 nM for `CC[C@@H](C(=O)[C@@H](C)[C@@H](O)[C@H](C)[C@@H]1O[C@@H]([C@@H](CC)C(=O)O)CC[C@@H]1C)[C@H]1O[C@]2(C=C[C@@H](NC(=O)C(N)=O)[C@]3(CC[C@@](C)([C@H]4CC[C@](O)(CC)[C@H](C)O4)O3)O2)[C@H](C)C[C@@H]1C` criterion not met

Please state whether IC50 is below 300 nM for `CC[C@@H](C(=O)[C@@H](C)[C@@H](O)[C@H](C)[C@@H]1O[C@@H]([C@@H](CC)C(=O)O)CC[C@@H]1C)[C@H]1O[C@]2(C=C[C@@H](NC(=O)C(=O)NCCO)[C@]3(CC[C@@](C)([C@H]4CC[C@](O)(CC)[C@H](C)O4)O3)O2)[C@H](C)C[C@@H]1C` criterion not met

Please state whether IC50 is below 300 nM for `CC[C@@H](C(=O)[C@@H](C)[C@@H](O)[C@H](C)[C@@H]1O[C@@H]([C@@H](CC)C(=O)O)CC[C@@H]1C)[C@H]1O[C@]2(C=C[C@@H](NC(=O)C(=O)NCCCc3ccccc3)[C@]3(CC[C@@](C)([C@H]4CC[C@](O)(CC)[C@H](C)O4)O3)O2)[C@H](C)C[C@@H]1C` criterion met

Please state whether IC50 is below 300 nM for `CC[C@@H](C(=O)[C@@H](C)[C@@H](O)[C@H](C)[C@@H]1O[C@@H]([C@@H](CC)C(=O)O)CC[C@@H]1C)[C@H]1O[C@]2(C=C[C@@H](NC(=O)OCCOCc3ccccc3)[C@]3(CC[C@@](C)([C@H]4CC[C@](O)(CC)[C@H](C)O4)O3)O2)[C@H](C)C[C@@H]1C` criterion met

Please state whether IC50 is below 300 nM for `CCCOC(=O)N[C@@H]1C=C[C@]2(O[C@H]([C@@H](CC)C(=O)[C@@H](C)[C@@H](O)[C@H](C)[C@@H]3O[C@@H]([C@@H](CC)C(=O)O)CC[C@@H]3C)[C@@H](C)C[C@H]2C)O[C@@]12CC[C@@](C)([C@H]1CC[C@](O)(CC)[C@H](C)O1)O2` criterion met

====

# SI A2780Cis listing for each entry below
test system: A2780Cis (cisplatin-resistant human ovarian cancer); assay: In vitro cytotoxicity, SRB assay, A2780Cis; type: cell-based
Answer using only a numeral; do not append any unit.

Worked examples, 2 molecules total:
{"columns": ["Molecule", "SI A2780Cis"],
 "data": [
  ["CC[C@@H](C(=O)[C@@H](C)[C@@H](O)[C@H](C)[C@@H]1O[C@@H]([C@@H](CC)C(=O)O)CC[C@@H]1C)[C@H]1O[C@]2(C=C[C@@H](NC(=O)c3ccncc3)[C@]3(CC[C@@](C)([C@H]4CC[C@](O)(CC)[C@H](C)O4)O3)O2)[C@H](C)C[C@@H]1C [FLC-00487-1•Na]", 79.6],
  ["CC[C@@H](C(=O)[C@@H](C)[C@@H](O)[C@H](C)[C@@H]1O[C@@H]([C@@H](CC)C(=O)O)CC[C@@H]1C)[C@H]1O[C@]2(C=C[C@@H](NC(=O)N(C)C)[C@]3(CC[C@@](C)([C@H]4CC[C@](O)(CC)[C@H](C)O4)O3)O2)[C@H](C)C[C@@H]1C [FLC-00538-1•Na]", 22.4]
]}

Look up A2780Cis (cisplatin-resistant human ovarian cancer) data: SI A2780Cis of CC[C@@H](C(=O)[C@@H](C)[C@@H](O)[C@H](C)[C@@H]1O[C@@H]([C@@H](CC)C(=O)O)CC[C@@H]1C)[C@H]1O[C@]2(C=C[C@@H](NC(=O)OCCC#N)[C@]3(CC[C@@](C)([C@H]4CC[C@](O)(CC)[C@H](C)O4)O3)O2)[C@H](C)C[C@@H]1C [FLC-00509-1•Na] , then report it. 14.7
